- Test system: E21 (patient-derived glioblastoma stem cells of mesenchymal subtype);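 also: nuclei counted by high-content imaging of Hoechst-stained cells in laminin-coated 384-well plates, relative to 0.1% DMSO vehicle wells, with staurosporine as cell-death control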
- experiment.description: surviving fraction (nuclei count normalised to DMSO); higher = more cells surviving (less toxic)
- assay.setup: 3000 nM; exposure time: 72 h
Structures can show the parent of a compound that is named as a salt.
reported.metric: surviving fraction

compound="CC(C)N1CCN(c2ccc(OCC3COC(Cn4cncn4)(c4ccc(Cl)cc4Cl)O3)cc2)CC1 (stereo not drawn)" reading=0.813
compound=Nc1nc(Cl)nc2c1ncn2[C@@H]1O[C@H](CO)[C@@H](O)[C@@H]1F reading=0.116
compound="CCCCCCCCCCCCCCCC[N+](C)(C)CCN(Cc1ccc(OC)cc1)c1ncccn1 [Thonzonium bromide]" reading=0.00843
compound=Oc1c(Cl)cc(Cl)c(Cl)c1Cc1c(O)c(Cl)cc(Cl)c1Cl reading=0.552
compound="CC[C@@]1(O)C(=O)OCc2c1cc1n(c2=O)Cc2cc3cc(O)ccc3nc2-1 [Hydroxy Camptothecine]" reading=0.119
compound="Cc1c(-c2ccc(-c3ccccc3F)cc2)nc2ccc(F)cc2c1C(=O)O [Brequinar sodium salt hydrate]" reading=0.444
compound="O=C(Nc1ccc([N+](=O)[O-])cc1Cl)c1cc(Cl)ccc1O [Niclosamide]" reading=0.00467
compound="CC(C)NCC(O)c1ccc(O)c(O)c1 (stereo not drawn) [Isoproterenol hydrochloride]" reading=0.989

---

- Tested on: E28 (patient-derived glioblastoma stem cells of classical subtype)
- experiment.description: phenotypic distance (Euclidean, principal components) from DMSO controls (arbitrary units); higher = stronger morphological change
- assay.setup: 37 nM; exposure time: 72 h
Counter-ions that a name gives are not always drawn.
reported.metric: phenotypic distance

compound=COc1cc(/C=C/C(=O)N2CCC=CC2=O)cc(OC)c1OC reading=0.697
compound="CCCCC(CC)CNC(=N)NC(=N)NCCCCCCNC(=N)NC(=N)NCC(CC)CCCC (centres undefined) [Alexidine dihydrochloride]" reading=0.518
compound="CC(NCCC(c1ccccc1)c1ccccc1)c1ccccc1 (centres undefined) [Fendiline hydrochloride]" reading=0.415
compound="Nc1ncn(C2OC(CO)C(O)C2O)c(=O)n1 (centres undefined)" reading=0.956
compound=CC(C)C[C@H](NC(=O)CNC(=O)c1cc(Cl)ccc1Cl)B1OC(=O)C(CC(=O)O)(CC(=O)O)O1 reading=4.06
compound=CC(C)C[C@@H](C(=O)N[C@H](C(=O)OC1CCCC1)c1ccccc1)[C@H](O)C(=O)NO reading=1.27
compound=Nc1nc2n[nH]nc2c(=O)[nH]1 reading=1
compound=COc1cc2c(NC3CCN(C(C)C)CC3)nc(C3CCCCC3)nc2cc1OCCCN1CCCC1 reading=0.394
compound=CN1CCC(NC(=O)c2cc(-c3c(O)cc(O)cc3Oc3ccc([N+](=O)[O-])cc3)on2)CC1 reading=0.573
compound=Oc1c(Cl)cc(Cl)c(Cl)c1Cc1c(O)c(Cl)cc(Cl)c1Cl reading=0.961
compound="CNCCc1ccccn1 [Betahistine mesylate]" reading=0.524
compound="CCCCC1C(=O)N(c2ccccc2)N(c2ccc(O)cc2)C1=O (centres undefined)" reading=0.689
compound="Clc1ccc(CSC(Cn2ccnc2)c2ccc(Cl)cc2Cl)cc1 (centres undefined) [Sulconazole nitrate]" reading=0.545
compound="N=c1ccn2c(n1)O[C@H]1[C@H](O)[C@@H](CO)O[C@H]12 [Ancitabine hydrochloride]" reading=1.29

---

- Tested on: E34 (patient-derived glioblastoma stem cells of proneural subtype)
- experiment.description: phenotypic distance (Euclidean, principal components) from DMSO controls (arbitrary units); higher = stronger morphological change
- assay.setup: 1000 nM; exposure time: 72 h
// label = 1.0 if phenotypic distance is not less than 2, otherwise 0.0

compound_structure=C[C@@H](Oc1cc(-c2cnn(C3CCNCC3)c2)cnc1N)c1c(Cl)ccc(F)c1Cl test_system=E34 assigned_label=0.0
compound_structure=OCCN1C[C@H](O)[C@@H](O)[C@H](O)[C@H]1CO test_system=E34 assigned_label=0.0
compound_structure=CC(C)C[C@H](NC(=O)CNC(=O)c1cc(Cl)ccc1Cl)B(O)O test_system=E34 assigned_label=1.0
compound_structure=O=C1CCc2cc(OCCCCc3nnnn3C3CCCCC3)ccc2N1 test_system=E34 assigned_label=0.0
compound_structure=COc1cc2c(cc1-c1c(C)noc1C)ncc1[nH]c(=O)n([C@H](C)c3ccccn3)c12 test_system=E34 assigned_label=0.0
